- Tested on: cancer cells (all tumor cell lines tested)
- assay-summary: Cell viability assay (MTT), summary over the cancer cell lines tested
- Assay type: cell-based, Human
- details: dark vs blue light 458 nm
Reported PI values, median over cancer cells values for a set of molecules
Give me the value, and tack the unit on after it.

F[P-](F)(F)(F)(F)F.O=C(CCCC[C@@H]1SC[C@@H]2NC(=O)N[C@@H]21)NCCCn1cc[n+]2[c]1[Ir-3]13([c]4ccccc4-c4sc5ccccc5[n+]41)([c]1ccccc1-c1sc4ccccc4[n+]13)[n+]1ccccc1-2 [I-k] ... 12.2 fold
F[P-](F)(F)(F)(F)F.O=C(CCCC[C@@H]1SC[C@@H]2NC(=O)N[C@@H]21)NCCCn1cc[n+]2[c]1[Ir-3]13([c]4ccccc4-c4ccc5ccccc5[n+]41)([c]1ccccc1-c1ccc4ccccc4[n+]13)[n+]1ccccc1-2 [I-g] ... 6.0 fold
COC(=O)c1ccc2[n+](c1)[Ir-3]13([c]4ccccc4-2)([c]2ccccc2-c2ccc(C(=O)OC)c[n+]21)[c]1n(CCCNC(=O)CCCC[C@@H]2SC[C@@H]4NC(=O)N[C@@H]42)cc[n+]1-c1cccc[n+]13.F[P-](F)(F)(F)(F)F [I-e] ... 6.2 fold

Let's switch to this molecule now.
What PI values, median over cancer cells value was documented for this molecule, F[P-](F)(F)(F)(F)F.O=C(CCCC[C@@H]1SC[C@@H]2NC(=O)N[C@@H]21)NCCCn1cc[n+]2[c]1[Ir-3]13([c]4ccccc4-c4c5ccccc5cc[n+]41)([c]1ccccc1-c1c4ccccc4cc[n+]13)[n+]1ccccc1-2 [I-h] ?
19.3 fold
